test system: PC3; assay: Cellular proliferation assay (Alamar blue), PC3; assay type: cell-based; details: Homo sapiens, PC-3, PC-3 cells; 10% FCS; 72 h with compound; Alamar blue 24 h; read-out: pIC50 PC-3 (converted)
Property: IC50

Field: example entries. Status: answers known.
[[record]]
molecule_smiles = "COc1ccc(OCCOc2ccc3cc2OCC(=O)N(C)CCCN(C)Cc2c[nH]c4ncnc(c24)N3)cc1"
tested_target = "PC3"
obs_value = "2.51 µM"

[[record]]
molecule_smiles = "CCCOc1ccc2cc1OCC(=O)N(C)CCCN(C)Cc1c[nH]c3ncnc(c13)N2"
tested_target = "PC3"
obs_value = "2 µM"

[[record]]
molecule_smiles = "CN1CCCN(C)C(=O)COc2cc(ccc2OCCNc2ncccn2)Nc2ncnc3[nH]cc(c23)C1"
tested_target = "PC3"
obs_value = "7.94 µM"


Task: Recorded IC50 of `CN1CCCN(C)C(=O)CCc2cc(ccc2N2CCOCC2)Nc2ncnc3[nH]cc(c23)C1` , please.
Output: > 10 µM

Task: Cool, now `CN1CCCN(C)C(=O)COc2cc(ccc2OCC(=O)NC2CCCCC2)Nc2ncnc3[nH]cc(c23)C1`
Output: 6.31 µM

Task: Cool, now `CN1CCCN(C)C(=O)COc2cc(ccc2Br)Nc2ncnc3[nH]cc(c23)C1`
Output: 1 µM

Task: Cool, now `CN1CCCN(C)C(=O)COc2cc(ccc2NC(=O)Nc2cccc(Cl)c2)Nc2ncnc3[nH]cc(c23)C1`
Output: > 10 µM

Task: Cool, now `COc1ccc2cc1OCCCC(=O)N1CCN(CC1)Cc1c[nH]c3ncnc(c13)N2`
Output: > 10 µM

Task: Cool, now `COc1ccc2cc1OCC(=O)N(C)CCCN(CC1CC1)Cc1c[nH]c3ncnc(c13)N2`
Output: > 10 µM

Task: Cool, now `CN1CCCN(C)C(=O)COc2cc(ccc2OCCSc2ccc(Cl)cc2)Nc2ncnc3[nH]cc(c23)C1`
Output: 5.01 µM

Task: Cool, now `COc1ccc2cc1CCC(=O)N(C)CCN(C)Cc1c[nH]c3ncnc(c13)N2`
Output: > 10 µM

Task: Cool, now `CN1CCCN(C)C(=O)CCCOc2cc(ccc2N2CCOCC2)Nc2ncnc3[nH]cc(c23)C1`
Output: > 10 µM

Task: Cool, now `COc1cc2cc(c1OC)OCCCC(=O)N(C)CCN(C)Cc1c[nH]c3ncnc(c13)N2`
Output: > 10 µM

Task: Cool, now `COc1cc2cc(c1OC)CN(C(C)C)CC(=O)N(C)CCCc1c[nH]c3ncnc(c13)N2`
Output: > 10 µM

Task: Cool, now `CCOc1ccc2cc1OCC(=O)N(C)CCCN(C)Cc1c[nH]c3ncnc(c13)N2`
Output: 2.51 µM

Task: Cool, now `COc1cc2cc(c1OC)OCCCCC(=O)N(C)CCN(C)Cc1c[nH]c3ncnc(c13)N2`
Output: > 10 µM

Task: Cool, now `COc1cc(NC(=O)COc2ccc3cc2OCC(=O)N(C)CCCN(C)Cc2cn(C)c4ncnc(c24)N3)cc(OC)c1OC`
Output: > 10 µM

Task: Cool, now `CN1CCN(C)C(=O)CCCOc2cc(cc(C(F)(F)F)c2)Nc2ncnc3[nH]cc(c23)C1`
Output: > 10 µM

Task: Cool, now `COc1cc2cc(c1OC)OCCCCC(=O)N1CCN(CC1)Cc1c[nH]c3ncnc(c13)N2`
Output: > 10 µM

Task: Cool, now `COCCCOc1ccc2cc1OCC(=O)N(C)CCCN(C)Cc1c[nH]c3ncnc(c13)N2`
Output: 3.98 µM

Task: Cool, now `CN1CCN(C)C(=O)COc2cc(ccc2Cl)Nc2ncnc3[nH]cc(c23)C1`
Output: > 10 µM

Task: Cool, now `CN1CCCN(C)C(=O)COc2cccc(c2)Nc2ncnc3[nH]cc(c23)C1`
Output: 1 µM

----------
System: H1299
Experiment: Cellular proliferation assay (Alamar blue), H1299
Assay type: cell-based
Conditions: Homo sapiens, NCI-H1299, H1299 cells; 10% FCS; 72 h with compound; Alamar blue 4 h; read-out: pIC50 H1299 (converted)
Protocol: Cellular proliferation of these compounds was tested on a panel of different cell lines in the presence of 10% FCS serum (37° C. and 5% (v/v) CO2). In a first step these cells were seeded and incubated for 24 hours in the absence of compound. In the second step the cells were incubated for 72 hours with the compounds to be tested for 72 hours. The viable cell number was finally assessed in a standard Alamar blue cell viability assay. […]
IC50: recorded values

[[record]]
compound = "COc1cc2cc(c1OC)OCCCC(=O)N1CCN(CC1)Cc1c[nH]c3ncnc(c13)N2 [Compound 112]"
tested_target = "H1299"
obs_value = "> 10 µM"


Let us examine a further case.
Task: Hi! What's the reported IC50 for COc1cc2cc(c1OC)OCCCCC(=O)N(C)CCN(C)Cc1c[nH]c3ncnc(c13)N2 [Compound 87] on H1299?
Output: > 10 µM

----------
IC50: recorded values
target: UniProt O00444; experiment: PLK-4 human kinase scintillation proximity assay (SPA); format: biochemical; conditions: 1 μM ATP, 60 minutes at r.t., read-out: PLK4 pIC50 (converted)
Hi! Could you send only the number? It should be in µM, unit omitted.

[[record]]
molecule_smiles = "CN1CCN(C)C(=O)COc2cccc(c2)Nc2ncnc3[nH]cc(c23)C1"
tested_target = "UniProt O00444"
property = "IC50"
unit_tag = "µM"
obs_value = 0.0501


Let us examine a further case.
Task: Recorded IC50 of `CN1CCN(C)C(=O)CCCOc2cc(cc(C(F)(F)F)c2)Nc2ncnc3[nH]cc(c23)C1` , please.
Output: 6.31

----------
system: H1299; assay: Cellular proliferation assay (Alamar blue), H1299; assay type: cell-based; conditions: Homo sapiens, NCI-H1299, H1299 cells; 10% FCS; 72 h with compound; Alamar blue 4 h; read-out: pIC50 H1299 (converted)
Property: IC50

Field: example entries. Status: answers known.
[[record]]
compound = "COc1ccc2cc1OCC(=O)N(C)CCCN(CC1CC1)Cc1c[nH]c3ncnc(c13)N2 [Compound 59]"
obs_value = "> 10 µM"

[[record]]
compound = "COc1cc2cc(c1OC)OCCCC(=O)N(C)CCCN(C)Cc1c[nH]c3ncnc(c13)N2 [Compound 69]"
obs_value = "> 10 µM"

[[record]]
compound = "COc1ccc2cc1OCC(=O)N1CCC[C@@H]1CN(C)CCCc1c[nH]c3ncnc(c13)N2 [Compound 38]"
obs_value = "> 10 µM"

[[record]]
compound = "CN1CCCN(C)C(=O)COc2cc(ccc2Cl)Nc2ncnc3c2c(cn3C)C1 [Compound 146]"
obs_value = "> 10 µM"

[[record]]
compound = "COc1ccc(NC(=O)COc2ccc3cc2OCC(=O)N(C)CCCN(C)Cc2c[nH]c4ncnc(c24)N3)cc1 [Compound 129]"
obs_value = "0.2 µM"


Task: Recorded IC50 of CN1CCCN(C)C(=O)COc2cc(ccc2OCCSc2ccc(Cl)cc2)Nc2ncnc3[nH]cc(c23)C1 [Compound 150] , please.
Output: ≥ 10 µM

Task: Cool, now CN1CCCN(C)C(=O)COc2cc(ccc2Cl)Nc2ncnc3[nH]cc(c23)C1 [Compound 14]
Output: > 10 µM

Task: Cool, now CCOCCOc1cc(OC)c2cc1OCC(=O)N(C)CCCN(C)Cc1c[nH]c3ncnc(c13)N2 [Compound 151]
Output: > 10 µM

Task: Cool, now COc1cc(NC(=O)COc2ccc3cc2OCC(=O)N(C)CCCN(C)Cc2c[nH]c4ncnc(c24)N3)cc(OC)c1OC [Compound 71]
Output: 3.98 µM

----------
target: PLK4 (h) (Homo sapiens, UniProt O00444); test: PLK-4 human kinase scintillation proximity assay (SPA); format: biochemical; conditions: 1 μM ATP, 60 minutes at r.t., read-out: PLK4 pIC50 (converted)
Sequence (O00444 whole entry): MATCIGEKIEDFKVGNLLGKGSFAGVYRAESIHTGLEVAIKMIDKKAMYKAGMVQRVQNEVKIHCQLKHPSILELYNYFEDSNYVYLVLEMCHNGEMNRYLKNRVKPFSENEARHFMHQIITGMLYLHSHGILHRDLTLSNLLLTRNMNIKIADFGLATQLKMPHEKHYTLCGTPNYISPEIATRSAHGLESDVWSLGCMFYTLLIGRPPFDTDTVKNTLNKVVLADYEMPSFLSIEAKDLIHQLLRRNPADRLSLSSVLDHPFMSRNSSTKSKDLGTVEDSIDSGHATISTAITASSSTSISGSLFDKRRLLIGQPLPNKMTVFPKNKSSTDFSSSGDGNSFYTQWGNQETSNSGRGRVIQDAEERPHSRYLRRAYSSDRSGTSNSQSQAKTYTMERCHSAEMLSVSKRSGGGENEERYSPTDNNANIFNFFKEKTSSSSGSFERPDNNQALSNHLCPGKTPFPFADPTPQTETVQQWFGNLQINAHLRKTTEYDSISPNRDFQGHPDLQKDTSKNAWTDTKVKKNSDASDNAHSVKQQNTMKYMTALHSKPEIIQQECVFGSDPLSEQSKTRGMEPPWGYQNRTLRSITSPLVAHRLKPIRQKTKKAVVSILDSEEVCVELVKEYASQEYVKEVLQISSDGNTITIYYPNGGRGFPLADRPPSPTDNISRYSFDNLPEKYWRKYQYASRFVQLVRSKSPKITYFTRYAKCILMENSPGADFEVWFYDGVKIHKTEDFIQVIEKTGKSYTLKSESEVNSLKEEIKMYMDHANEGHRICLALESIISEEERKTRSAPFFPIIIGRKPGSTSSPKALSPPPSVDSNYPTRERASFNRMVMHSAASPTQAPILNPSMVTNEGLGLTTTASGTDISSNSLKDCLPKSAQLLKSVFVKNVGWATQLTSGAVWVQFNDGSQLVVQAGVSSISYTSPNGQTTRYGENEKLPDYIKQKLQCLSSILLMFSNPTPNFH
Decide using IC50 alone. Strictly below 0.06 µM: yes. Equal to or above 0.06 µM: no.

Task: Confirm or reject: IC50 of `COc1cc2cc(c1OC)CN(C(C)C)CC(=O)N(C)CCCc1c[nH]c3ncnc(c13)N2` lies strictly below 0.06 µM
Output: no

Task: Cool, now `CN1CCN(C)C(=O)CN(C)C(=O)CCc2cccc(c2)Nc2ncnc3[nH]cc(c23)C1`
Output: no

Task: Cool, now `CCOCCOc1ccc2cc1OCC(=O)N(C)CCCN(C)Cc1c[nH]c3ncnc(c13)N2`
Output: yes

Task: Cool, now `COc1ccc2cc1OCCNC(=O)CN(C)Cc1c[nH]c3ncnc(c13)N2`
Output: no

Task: Cool, now `CN1CCN(C)C(=O)CCc2cc(ccc2N2CCOCC2)Nc2ncnc3[nH]cc(c23)C1`
Output: no

Task: Cool, now `COc1ccc2cc1OCCCC(=O)N(C)CCCN(C)Cc1c[nH]c3ncnc(c13)N2`
Output: no

Task: Cool, now `CN1CCCN(C)C(=O)Cc2cccc(c2)Nc2ncnc3[nH]cc(c23)C1`
Output: no

Task: Cool, now `COCCN(CCOc1ccc2cc1OCC(=O)N(C)CCCN(C)Cc1c[nH]c3ncnc(c13)N2)Cc1ccccc1`
Output: yes

Task: Cool, now `COc1ccc2cc1OCC(=O)N(C)CCCN(Cc1ccncc1)Cc1c[nH]c3ncnc(c13)N2`
Output: no

Task: Cool, now `COc1cc2cc(c1OC)OCCCCC(=O)N(C)CCN(C)Cc1c[nH]c3ncnc(c13)N2`
Output: no
